Target: PBK (human) (UniProt Q96KB5)
Sequence (Q96KB5 whole entry, looked up): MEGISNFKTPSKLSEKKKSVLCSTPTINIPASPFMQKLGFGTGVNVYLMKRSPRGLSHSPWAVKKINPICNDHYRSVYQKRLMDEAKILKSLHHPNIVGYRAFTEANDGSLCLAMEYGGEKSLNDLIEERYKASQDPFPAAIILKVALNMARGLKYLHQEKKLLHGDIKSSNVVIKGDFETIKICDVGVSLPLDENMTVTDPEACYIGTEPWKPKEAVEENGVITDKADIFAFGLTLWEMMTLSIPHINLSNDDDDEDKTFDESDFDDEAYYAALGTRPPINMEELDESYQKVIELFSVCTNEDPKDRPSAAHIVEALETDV
Assay: radiometric filter-binding kinase assay, Kinase HotSpot
Settings: compound 0.5 µM; ATP 10 µM
Reported values of residual activity for individual entries
Kindly answer with a numeric value in %, unit omitted.

Some solved cases for reference:
QUERY_SMILES: CC(C)[C@H](CO)Nc1nc(Nc2cc(N)cc(Cl)c2)c2ncn(C(C)C)c2n1
residual activity [%]: 75.6

QUERY_SMILES: O=C1NC(=O)C(c2c[nH]c3ccccc23)=C1c1c[nH]c2ccccc12
residual activity [%]: 100

QUERY_SMILES: COc1cc2ncc(-c3ccccc3)nc2cc1OC
residual activity [%]: 85.5

Please examine the following record next.
Need residual activity, item `Nc1nccc(-c2c(-c3ccc(F)cc3)ncn2C2CCNCC2)n1`
94.9
